Parameter: IC50. Scope: all listed entries.
Target: UniProt P08581
Sequence (P08581 25-1390): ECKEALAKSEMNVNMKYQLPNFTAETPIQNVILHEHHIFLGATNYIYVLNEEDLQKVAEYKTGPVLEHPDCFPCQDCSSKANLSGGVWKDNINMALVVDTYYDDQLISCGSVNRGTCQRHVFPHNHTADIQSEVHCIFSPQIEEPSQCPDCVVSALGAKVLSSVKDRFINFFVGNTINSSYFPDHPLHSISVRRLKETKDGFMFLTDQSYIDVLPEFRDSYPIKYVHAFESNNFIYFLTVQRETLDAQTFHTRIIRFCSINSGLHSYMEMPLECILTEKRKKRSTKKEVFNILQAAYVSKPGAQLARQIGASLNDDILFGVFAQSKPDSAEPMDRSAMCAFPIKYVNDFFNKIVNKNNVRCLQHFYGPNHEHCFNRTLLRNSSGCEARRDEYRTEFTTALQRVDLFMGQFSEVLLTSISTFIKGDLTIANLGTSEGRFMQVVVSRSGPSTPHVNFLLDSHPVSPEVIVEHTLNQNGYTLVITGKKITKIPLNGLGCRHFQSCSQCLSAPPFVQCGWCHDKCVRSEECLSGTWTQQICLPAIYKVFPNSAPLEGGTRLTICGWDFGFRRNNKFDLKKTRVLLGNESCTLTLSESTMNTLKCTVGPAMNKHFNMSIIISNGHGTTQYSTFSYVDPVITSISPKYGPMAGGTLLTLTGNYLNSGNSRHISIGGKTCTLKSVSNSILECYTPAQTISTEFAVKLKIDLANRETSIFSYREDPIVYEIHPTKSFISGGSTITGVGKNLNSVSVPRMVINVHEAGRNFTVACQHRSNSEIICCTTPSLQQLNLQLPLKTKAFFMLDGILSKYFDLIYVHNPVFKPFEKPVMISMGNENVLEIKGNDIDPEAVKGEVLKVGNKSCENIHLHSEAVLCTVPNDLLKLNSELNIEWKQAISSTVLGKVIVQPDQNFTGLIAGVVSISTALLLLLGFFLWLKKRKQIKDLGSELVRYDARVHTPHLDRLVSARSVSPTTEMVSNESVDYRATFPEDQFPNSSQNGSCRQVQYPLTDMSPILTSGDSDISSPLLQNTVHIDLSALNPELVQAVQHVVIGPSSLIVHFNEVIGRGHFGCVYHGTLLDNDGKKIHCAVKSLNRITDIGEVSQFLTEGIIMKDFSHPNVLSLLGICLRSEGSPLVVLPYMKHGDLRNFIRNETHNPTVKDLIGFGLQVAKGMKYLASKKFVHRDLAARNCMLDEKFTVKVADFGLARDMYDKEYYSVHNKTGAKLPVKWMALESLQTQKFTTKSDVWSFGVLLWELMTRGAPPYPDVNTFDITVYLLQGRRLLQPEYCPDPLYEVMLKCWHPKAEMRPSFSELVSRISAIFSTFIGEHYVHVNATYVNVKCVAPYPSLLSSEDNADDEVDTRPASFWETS
Test: MET (human) AlphaScreen kinase assay, Km of ATP
Format: biochemical
Details: AlphaScreen, Km of ATP; read-out: Met biochemical IC50
Method: Someone skilled in the art will appreciate that a variety of assay formats may be used to determine the activity of the compounds of this invention. For example, AlphaScreen (Amplified Luminescent Proximity Homogeneous Assay) technology was used with the kinases described below. […] Desired compound is added in a final concentration of 1% DMSO with control being vehicle of DMSO alone. […] The plates, incubated for 1 h, are read on an AlphaQuest plate reader

Example entries and their recorded answers appear below.
C[C@@H](Oc1c(N)ncc2c(-c3cnc(N(C)C)nc3)coc12)c1c(Cl)ccc(F)c1Cl [Example 124]: 500 to 5000 nM
C[C@@H](Oc1c(N)ncc2c(-c3ccnc(N4CCNCC4)c3)coc12)c1c(Cl)ccc(F)c1Cl [Example 132]: < 500 nM
C[C@@H]1CN(C(=O)c2ccc(-c3coc4c(O[C@H](C)c5c(Cl)ccc(F)c5Cl)c(N)ncc34)cc2)C[C@H](C)O1 [Example 297]: 500 to 5000 nM

Turning now to a further compound:
Which measured IC50 value corresponds to CC(C)OC(=O)N1CC=C(c2coc3c(O[C@H](C)c4c(Cl)ccc(F)c4Cl)c(N)ncc23)CC1 [Example 53] ?
500 to 5000 nM

----------
Biological target: RON (human) (Homo sapiens, UniProt Q04912)
Sequence (Q04912 25-1400): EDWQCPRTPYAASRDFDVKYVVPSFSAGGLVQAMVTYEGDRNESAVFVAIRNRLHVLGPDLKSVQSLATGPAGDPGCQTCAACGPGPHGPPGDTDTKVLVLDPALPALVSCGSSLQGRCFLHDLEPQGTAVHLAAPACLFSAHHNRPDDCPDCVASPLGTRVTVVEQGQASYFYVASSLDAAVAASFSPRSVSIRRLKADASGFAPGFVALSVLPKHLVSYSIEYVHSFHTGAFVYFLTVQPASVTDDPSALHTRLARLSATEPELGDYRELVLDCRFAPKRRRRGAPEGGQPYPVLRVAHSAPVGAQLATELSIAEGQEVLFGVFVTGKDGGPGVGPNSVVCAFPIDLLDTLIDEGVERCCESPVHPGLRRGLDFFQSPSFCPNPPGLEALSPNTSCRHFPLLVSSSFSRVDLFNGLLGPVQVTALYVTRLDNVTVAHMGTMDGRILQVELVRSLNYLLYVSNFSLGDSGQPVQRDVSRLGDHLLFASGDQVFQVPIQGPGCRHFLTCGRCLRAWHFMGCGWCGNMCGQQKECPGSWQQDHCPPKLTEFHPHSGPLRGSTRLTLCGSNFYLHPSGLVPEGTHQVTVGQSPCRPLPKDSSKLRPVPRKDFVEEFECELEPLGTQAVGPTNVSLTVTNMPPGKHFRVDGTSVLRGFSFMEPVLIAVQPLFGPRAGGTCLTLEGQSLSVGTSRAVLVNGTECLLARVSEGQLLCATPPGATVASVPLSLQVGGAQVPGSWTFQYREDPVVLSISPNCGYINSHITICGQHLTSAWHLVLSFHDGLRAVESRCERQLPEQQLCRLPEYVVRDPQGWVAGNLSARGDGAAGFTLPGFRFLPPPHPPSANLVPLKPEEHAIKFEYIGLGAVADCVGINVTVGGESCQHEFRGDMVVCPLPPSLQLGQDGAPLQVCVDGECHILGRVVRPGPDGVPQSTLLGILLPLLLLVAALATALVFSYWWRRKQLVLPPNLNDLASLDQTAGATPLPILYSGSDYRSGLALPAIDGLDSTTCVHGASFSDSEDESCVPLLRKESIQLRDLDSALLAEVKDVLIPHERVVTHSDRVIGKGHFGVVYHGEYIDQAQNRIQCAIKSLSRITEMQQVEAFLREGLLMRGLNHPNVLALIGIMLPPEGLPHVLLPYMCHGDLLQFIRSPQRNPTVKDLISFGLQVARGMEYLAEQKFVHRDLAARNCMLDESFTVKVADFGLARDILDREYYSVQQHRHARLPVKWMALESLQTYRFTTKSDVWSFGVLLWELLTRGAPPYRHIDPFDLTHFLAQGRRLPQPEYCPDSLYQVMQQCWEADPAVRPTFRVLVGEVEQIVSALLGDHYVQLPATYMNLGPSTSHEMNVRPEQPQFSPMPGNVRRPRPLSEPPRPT
Assay: RON (human) AlphaScreen kinase assay, Km of ATP
Format: biochemical
Conditions: AlphaScreen, Km of ATP; read-out: RON biochemical IC50
Metric name: IC50

C[C@@H](Oc1c(N)ncc2c(C3=CCN(C4CN(C(N)=O)C4)CC3)coc12)c1c(Cl)ccc(F)c1Cl: < 0.5 µM
Nc1ncc2c(-c3cnn(C4CCNCC4)c3)coc2c1O[C@H]1CCCC[C@H]1c1ccccc1: 0.5 to 5 µM
C[C@@H](Oc1c(N)ncc2c(-c3ccc(N4CCNCC4)nc3)coc12)c1c(Cl)ccc(F)c1Cl: < 0.5 µM

Which measured IC50 value corresponds to `CC(C)NC(=O)c1coc2c(O[C@H](C)c3c(Cl)ccc(F)c3Cl)c(N)ncc12` ?
0.5 to 5 µM

Which measured IC50 value corresponds to `C[C@@H](Oc1c(N)ncc2c(C3=CCN(S(=O)(=O)c4ccccc4)CC3)coc12)c1c(Cl)ccc(F)c1Cl` ?
0.5 to 5 µM

Which measured IC50 value corresponds to CC(Cc1ccccc1Cl)Oc1c(N)ncc2c(-c3cnn(C4CCNCC4)c3)coc12 (stereo not shown) ?
0.5 to 5 µM

Which measured IC50 value corresponds to `C[C@@H](Oc1c(N)ncc2c(-c3cnn([C@@H]4CCNC4)c3)coc12)c1c(Cl)ccc(F)c1Cl` ?
< 0.5 µM

----------
Biological target: UniProtKB Q04912
Assay: RON (human) AlphaScreen kinase assay, Km of ATP
Type: biochemical
Settings: AlphaScreen, Km of ATP; read-out: RON biochemical IC50
Parameter: IC50. Scope: all listed entries.

Example entries and their recorded answers appear below.
C[C@@H](Oc1c(N)ncc2c(C3=CCN(C(=O)c4cnc[nH]4)CC3)coc12)c1c(Cl)ccc(F)c1Cl: 500 to 5000 nM
CC(Oc1c(N)ncc2c(-c3cnn(C4CCNCC4)c3)coc12)c1ccc(Cl)cc1 (stereo not shown): 500 to 5000 nM
C[C@@H](Oc1c(N)ncc2c(-c3ccc(N)cc3)coc12)c1c(Cl)ccc(F)c1Cl: 500 to 5000 nM
CC(Oc1c(N)ncc2c(-c3cnn(C4CCNCC4)c3)coc12)c1cccc(-c2cn[nH]c2)c1 (stereo not shown): 500 to 5000 nM
C[C@@H](Oc1c(N)ncc2c(C3=CCN(C(=O)[C@H](N)CO)CC3)coc12)c1c(Cl)ccc(F)c1Cl: < 500 nM

Which measured IC50 value corresponds to C[C@@H](Oc1c(N)ncc2c(C3=CCN(CC(=O)N4CCC(O)C4)CC3)coc12)c1c(Cl)ccc(F)c1Cl (stereo partly shown) ?
500 to 5000 nM

Which measured IC50 value corresponds to CC(Oc1c(N)ncc2c(-c3cnn(C4CCNCC4)c3)coc12)c1c(Cl)c(F)cc(OCCCN)c1Cl (stereo not shown) ?
< 500 nM
